- tested.target: 5-hydroxytryptamine receptor 4 (Cavia porcellus); also: in other assays of this panel Not Active means under 50% inhibition at 10 µM
- Sequence (O70528 whole entry): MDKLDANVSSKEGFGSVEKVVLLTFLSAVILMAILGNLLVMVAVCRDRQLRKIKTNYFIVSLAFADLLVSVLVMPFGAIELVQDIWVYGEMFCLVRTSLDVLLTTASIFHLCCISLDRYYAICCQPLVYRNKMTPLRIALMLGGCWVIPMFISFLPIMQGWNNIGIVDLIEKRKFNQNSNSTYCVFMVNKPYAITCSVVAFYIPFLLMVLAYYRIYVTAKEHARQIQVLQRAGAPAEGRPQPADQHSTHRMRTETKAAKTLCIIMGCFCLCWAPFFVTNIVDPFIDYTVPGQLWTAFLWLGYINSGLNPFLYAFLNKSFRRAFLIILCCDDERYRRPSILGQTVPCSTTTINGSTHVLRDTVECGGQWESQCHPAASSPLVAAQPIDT
- Format: cell membranes, Dunkin-Hartley, Striatum, Membrane
property.measured: IC50

{"substance": "POVIDONE", "IC50": "Not Active"}
{"substance": "CARBOXYMETHYLCELLULOSE", "IC50": "Not Active"}
{"substance": "CHROMIC CHLORIDE", "IC50": "Not Active"}
{"substance": "LEAD(IV) ACETATE", "IC50": "Not Active"}

// below: IC50 requested for another substance
get_value(item= COPPER(II) OXIDE , readout=IC50) returns Not Active

###

Catalogue of compounds with associated pIC50
- tested.target: Melanocortin receptor 5 (Homo sapiens, UniProt P33032); also: in other assays of this panel Not Active means under 50% inhibition at 10 µM
- Sequence (P33032 whole entry): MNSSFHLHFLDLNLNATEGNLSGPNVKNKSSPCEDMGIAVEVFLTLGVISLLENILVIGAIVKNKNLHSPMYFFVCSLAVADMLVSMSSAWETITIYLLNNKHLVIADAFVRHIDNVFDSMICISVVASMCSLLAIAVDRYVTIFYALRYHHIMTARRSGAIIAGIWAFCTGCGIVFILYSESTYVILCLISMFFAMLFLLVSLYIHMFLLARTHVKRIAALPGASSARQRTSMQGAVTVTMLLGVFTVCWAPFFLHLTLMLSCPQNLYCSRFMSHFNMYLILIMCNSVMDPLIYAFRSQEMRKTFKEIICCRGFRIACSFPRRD
- Assay type: cell membranes, HEK293, Membrane
- setup.conditions: read-out: IC50
Please keep in mind that pIC50 is minus log10 of the molar concentration; only the number is needed.

{"compound": "CC1(COc2ccc(CC3SC(=O)NC3=O)cc2)CCCCC1 (stereo not drawn)", "pIC50": 4.54}
{"compound": "CC[C@H](C)[C@@H](CO[C@@H](Cc1ccccc1)C(=O)N[C@@H](CCS(C)(=O)=O)C(=O)OC(C)C)NC[C@@H](N)CS", "pIC50": 6.91}

Melanocortin receptor 5 (Homo sapiens, UniProt P33032) data for c1ccc2sc(SSc3nc4ccccc4s3)nc2c1 [BENZOTHIAZYL DISULFIDE] ; its pIC50: 5.41

###

- tested.target: 5-hydroxytryptamine receptor 1A (Rattus norvegicus); also: in other assays of this panel Not Active means under 50% inhibition at 10 µM
- Sequence (P19327 whole entry): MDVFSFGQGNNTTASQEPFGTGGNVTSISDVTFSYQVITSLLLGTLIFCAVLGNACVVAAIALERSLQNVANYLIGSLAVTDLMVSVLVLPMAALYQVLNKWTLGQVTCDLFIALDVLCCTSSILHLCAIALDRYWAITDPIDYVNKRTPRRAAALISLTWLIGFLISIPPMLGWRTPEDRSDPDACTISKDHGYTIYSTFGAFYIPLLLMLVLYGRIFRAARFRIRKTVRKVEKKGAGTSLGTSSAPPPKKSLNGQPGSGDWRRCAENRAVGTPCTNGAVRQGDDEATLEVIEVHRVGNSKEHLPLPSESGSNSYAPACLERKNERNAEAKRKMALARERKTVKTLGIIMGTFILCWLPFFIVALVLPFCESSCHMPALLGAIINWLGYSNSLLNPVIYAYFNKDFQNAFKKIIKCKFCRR
- Type: cell membranes, CHO-K1, Membrane
- setup.conditions: cho-k1
property.measured: IC50

{"compound": "C#C[C@]1(O)CC[C@H]2[C@@H]3CCC4=CC(=O)CC[C@@H]4[C@H]3CC[C@@]21C [NORETHINDRONE]", "property.measured": "IC50", "value": "Not Active"}
{"compound": "Nc1ccc(C(=O)O)c(O)c1 [AMINOSALICYLIC ACID]", "property.measured": "IC50", "value": "Not Active"}
{"compound": "O=C(NCCN1CCOCC1)c1ccc(Cl)cc1 [MOCLOBEMIDE]", "property.measured": "IC50", "value": "Not Active"}
{"compound": "CC(C)NCC(O)COc1ccc(CC(N)=O)cc1 (stereo not given) [ATENOLOL]", "property.measured": "IC50", "value": "Not Active"}

// below: IC50 requested for another compound
get_value(item= COc1ccc(C[C@H](N)C(=O)N[C@H]2[C@@H](O)[C@H](n3cnc4c(N(C)C)ncnc43)O[C@@H]2CO)cc1 [PUROMYCIN] , readout=IC50) returns Not Active

###

- tested.target: 5-hydroxytryptamine receptor 2C (Homo sapiens, UniProt P28335)
- Sequence (P28335 whole entry): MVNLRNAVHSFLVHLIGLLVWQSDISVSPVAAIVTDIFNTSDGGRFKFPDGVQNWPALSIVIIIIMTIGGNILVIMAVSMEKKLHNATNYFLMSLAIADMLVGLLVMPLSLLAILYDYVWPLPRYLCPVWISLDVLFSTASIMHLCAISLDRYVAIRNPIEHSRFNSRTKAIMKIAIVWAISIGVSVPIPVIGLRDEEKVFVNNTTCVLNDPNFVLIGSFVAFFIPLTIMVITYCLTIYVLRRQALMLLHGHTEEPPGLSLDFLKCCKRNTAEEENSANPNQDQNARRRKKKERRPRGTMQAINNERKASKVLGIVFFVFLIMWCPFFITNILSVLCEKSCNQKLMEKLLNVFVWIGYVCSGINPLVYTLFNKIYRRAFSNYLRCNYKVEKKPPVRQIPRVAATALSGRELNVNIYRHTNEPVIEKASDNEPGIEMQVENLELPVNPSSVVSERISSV
- assay.info: DRUGMATRIX: Serotonin (5-Hydroxytryptamine) 5-HT2C radioligand binding (ligand: [3H] Mesulergine)
- Assay type: cell membranes, CHO-K1, Membrane
- setup.conditions: cho-k1; Not Active = under 50% inhibition at 10 µM
property.measured: IC50

{"molecule": "CCN1CCCC1CNC(=O)c1cc(S(N)(=O)=O)ccc1OC (centres undefined) [SULPIRIDE]", "IC50": "Not Active"}
{"molecule": "CC1=C(/C=C/C(C)=C/C=C/C(C)=C/C(=O)O)C(C)(C)CCC1 [TRETINOIN]", "IC50": "Not Active"}
{"molecule": "COc1ccc(C[C@H](N)C(=O)N[C@H]2[C@@H](O)[C@H](n3cnc4c(N(C)C)ncnc43)O[C@@H]2CO)cc1 [PUROMYCIN]", "IC50": "Not Active"}
{"molecule": "CCCCCCNC(=O)n1cc(F)c(=O)[nH]c1=O [CARMOFUR]", "IC50": "Not Active"}
{"molecule": "C#C[C@]1(O)CC[C@H]2[C@@H]3[C@H](C)CC4=C(CCC(=O)C4)[C@H]3CC[C@@]21C [TIBOLONE]", "IC50": "Not Active"}
{"molecule": "Cc1[nH]c(=O)c(C#N)cc1-c1ccncc1 [MILRINONE]", "IC50": "Not Active"}
{"molecule": "OC[C@H]1O[C@@H]2O[C@H]3[C@H](O)[C@@H](O)[C@@H](O[C@H]4[C@H](O)[C@@H](O)[C@@H](O[C@H]5[C@H](O)[C@@H](O)[C@@H](O[C@H]6[C@H](O)[C@@H](O)[C@@H](O[C@H]7[C@H](O)[C@@H](O)[C@@H](O[C@H]8[C@H](O)[C@@H](O)[C@@H](O[C@H]1[C@H](O)[C@H]2O)O[C@@H]8CO)O[C@@H]7CO)O[C@@H]6CO)O[C@@H]5CO)O[C@@H]4CO)O[C@@H]3CO [BETADEX]", "IC50": "Not Active"}
{"molecule": "CC12CCC(CC1)C(C)(C)O2 [EUCALYPTOL]", "IC50": "Not Active"}

get_value(item= CCC1(c2ccccc2)C(=O)NC(=O)NC1=O [PHENOBARBITAL] , readout=IC50) returns Not Active

get_value(item= NC(N)=Nc1nc(CSCCC(N)=NS(N)(=O)=O)cs1 [FAMOTIDINE] , readout=IC50) returns Not Active

Every entry's value here was drawn from ChEMBL document CHEMBL1909046.
